settings: buffer; pH 7.4; 200.0 µM
Parameter: solubility kinetic (µg/mL)
Return type: number; implicit unit µg/mL.

Some solved cases for reference:
[[record]]
molecule = "O=C(Oc1ccc(Cl)c(Cl)c1)C1=CC=CN2CCS(=O)(=O)N=C12"
number = 19.7

[[record]]
molecule = "CCOc1ccccc1NS(=O)(=O)c1ccc2oc(=O)ccc2c1"
number = 43.6

[[record]]
molecule = "COc1cccc(NC(=O)CC2Oc3ccccc3NC2=O)c1 (stereo not drawn)"
number = 6.7

[[record]]
molecule = "CC1(c2ccccc2)CC(C)(C)N(C(N)=O)c2ccccc21 (stereo not drawn)"
number = 40.9

[[record]]
molecule = "C#CCOc1nc2c(c(=O)n(C)c(=O)n2C)n1Cc1ccccc1"
number = 8.9


Attention now turns to another entry.
The value of solubility kinetic measured for the molecule Cc1ccc(C(C)C)c(OCCCn2ccnc2C)c1.O=C(O)C(=O)O turned out to be 51.2

---

Reported solubility kinetic is given for each of the following compounds.
conditions: buffer; pH 7.4; 200.0 µM

Some solved cases for reference:
[[record]]
compound = "CN(C)Cc1c(O)ccc2occ(C(=O)c3ccc(F)cc3)c12"
parameter = "solubility kinetic"
result = "> 47 µg/mL"

[[record]]
compound = "Cc1cc(C)c(C(=O)Nc2ccccc2)c(CC(C)(C)C(=O)O)c1"
parameter = "solubility kinetic"
result = "> 48.8 µg/mL"

[[record]]
compound = "CSc1ccccc1NC(=O)CSc1nncs1"
parameter = "solubility kinetic"
result = "> 44.6 µg/mL"

[[record]]
compound = "O=C(COC(=O)c1ccc(O)cc1)NC1CCCCCC1"
parameter = "solubility kinetic"
result = "> 43.7 µg/mL"

[[record]]
compound = "CC(=O)NCCc1nc2cc(NC(=O)Nc3ccccc3)ccc2n1C"
parameter = "solubility kinetic"
result = "> 52.7 µg/mL"


The value of solubility kinetic measured for the compound O=C(Nc1ccccc1)Nc1ccno1 turned out to be > 30.5 µg/mL

The value of solubility kinetic measured for the compound CCC(C(=O)N/N=C(\C)c1cccnc1)c1ccccc1 (stereo not given) turned out to be > 42.2 µg/mL

The value of solubility kinetic measured for the compound CCCn1c(SCC(=O)NC2CCCC2)nnc1-c1cccnc1 turned out to be > 51.8 µg/mL

The value of solubility kinetic measured for the compound O=S(=O)(NCc1ccco1)c1ccc(Cl)s1 turned out to be > 41.7 µg/mL

The value of solubility kinetic measured for the compound O=C(COC(=O)c1ccc(O)cc1)Nc1ccc(S(=O)(=O)N2CCCC2)cc1 turned out to be > 60.7 µg/mL

The value of solubility kinetic measured for the compound COc1ccc2oc(=Nc3cc(F)ccc3F)c(C(N)=O)cc2c1 turned out to be < 0.4 µg/mL

The value of solubility kinetic measured for the compound O=C(/N=C1\NC(=O)C(F)(C(F)(F)F)S1)NC1CCCCC1 (stereo not given) turned out to be > 49.1 µg/mL

---

conditions: buffer; pH 7.4; 200.0 µM
Parameter: solubility kinetic

[[record]]
compound = "CN(C(=O)Cn1nc(C(=O)O)c2ccccc2c1=O)C1CCCCC1"
parameter = "solubility kinetic"
result = "> 51.5 µg/mL"

[[record]]
compound = "O=C(O)c1nn(-c2ccc(F)cc2)ccc1=O"
parameter = "solubility kinetic"
result = "> 35.1 µg/mL"

[[record]]
compound = "COc1ccc(NC(=O)N2CCCCCC2)c(OC)c1"
parameter = "solubility kinetic"
result = "> 41.8 µg/mL"

[[record]]
compound = "COc1cc(/C=C(\\C#N)C(=O)N2CCCCC2)ccc1O"
parameter = "solubility kinetic"
result = "> 42.9 µg/mL"

[[record]]
compound = "CC(C)=CC(=O)OCc1csc(CC(=O)Nc2ccccc2C)n1"
parameter = "solubility kinetic"
result = "> 51.7 µg/mL"

[[record]]
compound = "CCN(Cc1ccncc1)C(=O)C(CO)c1ccccc1 (centres undefined)"
parameter = "solubility kinetic"
result = "> 42.7 µg/mL"

[[record]]
compound = "O=C(CN1C(=O)c2cccc3cccc(c23)C1=O)N1CCOCC1"
parameter = "solubility kinetic"
result = "> 48.7 µg/mL"

[[record]]
compound = "O=C(NCCc1c[nH]c2ccccc12)c1ccc(F)cc1F"
parameter = "solubility kinetic"
result = "> 45 µg/mL"


Attention now turns to another entry.
The value of solubility kinetic measured for the compound Cc1nnc(SCC(=O)NC2CCCCC2)[nH]c1=O turned out to be > 42.4 µg/mL

---

conditions: buffer; pH 7.4; 200.0 µM
Parameter: solubility kinetic

Some solved cases for reference:
[[record]]
compound = "COc1cc(/C=C/C(=O)NCC2CCCCC2)cc(OC)c1OC"
parameter = "solubility kinetic"
result = "< 0.7 µg/mL"

[[record]]
compound = "CC1CCN(C(=O)CSc2nc3ccccc3c(=O)[nH]2)CC1"
parameter = "solubility kinetic"
result = "> 47.6 µg/mL"

[[record]]
compound = "CC(C)c1onc(C(=O)Nc2ccc3c(c2)OCO3)c1[N+](=O)[O-]"
parameter = "solubility kinetic"
result = "> 47.9 µg/mL"

[[record]]
compound = "Cc1ccc(C2(O)CN3CCC2CC3)cc1.Cl (configuration not stated)"
parameter = "solubility kinetic"
result = "> 38.1 µg/mL"

[[record]]
compound = "Cl.O=C(CN1CCCC1)N1c2ccccc2C=Cc2ccccc21"
parameter = "solubility kinetic"
result = "> 51.1 µg/mL"

[[record]]
compound = "CN(CCO)CCOCCOc1cccc2ccccc12"
parameter = "solubility kinetic"
result = "34.6 µg/mL"

[[record]]
compound = "CCN(C(=O)c1ccco1)C1C2CC3CC(C2)CC1C3 (configuration not stated)"
parameter = "solubility kinetic"
result = "26.1 µg/mL"

[[record]]
compound = "Cc1cc(C)cc(NS(=O)(=O)c2c(C)[nH]c(=O)[nH]c2=O)c1"
parameter = "solubility kinetic"
result = "> 46.4 µg/mL"


The value of solubility kinetic measured for the compound Cc1cccc(C(=O)Nc2ccc3c(c2)C(=O)N(CC(C)C)C3=O)c1 turned out to be < 0.4 µg/mL

The value of solubility kinetic measured for the compound Cc1ccc(NS(=O)(=O)c2ccc(C(=O)NCc3ccccn3)cc2)cc1 turned out to be 53.8 µg/mL

The value of solubility kinetic measured for the compound CCCC1Cc2nc(Cl)c(C#N)cc2CO1 (configuration not stated) turned out to be > 35.5 µg/mL

The value of solubility kinetic measured for the compound OCc1cc(-c2ccc(Cl)c(Cl)c2)on1 turned out to be > 36.6 µg/mL

---

Reported solubility kinetic is given for each of the following compounds.
settings: buffer; pH 7.4; 200.0 µM

[[record]]
compound = "COc1ccccc1S(=O)(=O)N1CCNC(=O)C1"
result = "> 40.5 µg/mL"

[[record]]
compound = "O=C(CSc1n[nH]c(-c2ccc(Br)cc2)n1)N1CCOCC1"
result = "> 57.5 µg/mL"

[[record]]
compound = "COCCNC(=O)C(=O)c1c(-c2ccccc2)[nH]c2ccccc12"
result = "> 48.4 µg/mL"

[[record]]
compound = "Cc1cc(C)c(S(=O)(=O)NCC(=O)NCc2ccccn2)c(C)c1"
result = "> 52.1 µg/mL"

[[record]]
compound = "CC(=O)Nc1ccc(N2C(=O)CC(Sc3nccc(C)n3)C2=O)cc1 (stereo unspecified)"
result = "> 53.5 µg/mL"


Attention now turns to another entry.
The value of solubility kinetic measured for the compound Cn1cnc([N+](=O)[O-])c1SCCO turned out to be > 30.5 µg/mL

---

Reported solubility kinetic is given for each of the following compounds.
details: buffer; pH 7.4; 200.0 µM

Some solved cases for reference:
[[record]]
compound = "O=C(c1sccc1Cl)N1CCN(Cc2ccc3c(c2)OCO3)CC1"
parameter = "solubility kinetic"
result = "> 0.0547 mg/mL"

[[record]]
compound = "Cc1ccc(S(=O)(=O)NC(=NC(C)C)c2ccccc2)cc1"
parameter = "solubility kinetic"
result = "> 0.0475 mg/mL"

[[record]]
compound = "CC1CCN(CC(=O)N2c3ccccc3CC2C)CC1.Cl (stereo not drawn)"
parameter = "solubility kinetic"
result = "> 0.0463 mg/mL"


The value of solubility kinetic measured for the compound O=C1CSC(c2ccccc2O)N1Cc1ccccc1 (stereo not drawn) turned out to be > 0.0428 mg/mL

The value of solubility kinetic measured for the compound COc1ccc(CNC(=O)COC(=O)/C=C/c2ccc(Cl)cc2)cc1 turned out to be < 0.0008 mg/mL

---

Reported solubility kinetic is given for each of the following compounds.
conditions: buffer; pH 7.4; 200.0 µM

[[record]]
compound = "COc1ccc(NC(=O)Nc2ccc(Br)c(C)c2)cc1"
result = "< 0.4 µg/mL"

[[record]]
compound = "Cc1ccc(NC(=O)c2cccnc2)cc1C"
result = "> 33.9 µg/mL"

[[record]]
compound = "COc1ccc(NC(=S)Nc2ccccc2)cc1"
result = "> 38.8 µg/mL"

[[record]]
compound = "CN(C(=O)CSc1nnc(N)s1)C1CCCCC1"
result = "> 43 µg/mL"

[[record]]
compound = "C/C(=N\\N1CCN(C)CC1)c1ccc(OC(F)F)cc1"
result = "> 42.5 µg/mL"


The value of solubility kinetic measured for the compound Cc1cc(C)n2nc(C(=O)NNC(=O)c3ccccc3)nc2n1 turned out to be > 46.5 µg/mL

The value of solubility kinetic measured for the compound Cc1ccc(S(=O)(=O)Nc2ccccc2CNC2CCCCC2)cc1 turned out to be > 53.8 µg/mL

The value of solubility kinetic measured for the compound Cc1ccc(Sc2c([N+](=O)[O-])c(=O)n(C)c3ccccc23)cc1 turned out to be < 0.3 µg/mL
